Data provenance: PubChem BioAssay (NCI)

# maps each entry to its growth
system: HS 578T breast; assay: NCI-60 one-dose screen, 48 h (100 = growth as untreated, 0 = no growth, -100 = all killed); conditions: 10 µM unless noted
About 83,000 compounds went through this panel and 20% of them were active in at least one assay; those are over-represented in the sample as a whole.

molecule	growth (%)
O=C(Nc1ccccc1)Oc1ccccc1-c1ccccc1	93.3
CC(C)(C)CC(C)(C)Nc1c(-c2ccc3c(c2)OCO3)nc2cnccn12	88.5
Clc1cc(Cl)cc(N2N=C(c3cccc(Nc4ccncc4)c3)CC2c2ccccc2)c1 (centres undefined)	80.2
Cc1nc2sc(C(=O)Nc3cccc(Br)c3)c(N)c2cc1C(=O)c1ccc(C(F)(F)F)cc1	40.7
Clc1ccc(C2CC(c3cccc(Nc4ccncc4)c3)=NN2c2ccc(Cl)cc2)cc1 (centres undefined)	54
CO[C@@H]1[C@H](N(C)C(=O)c2ccccc2)C[C@@H]2O[C@]1(C)n1c3ccccc3c3c4c(c5c6ccccc6n2c5c31)C(=O)NC4=O	20.5
COc1ccc(/C=N/C2=C(C#N)C(c3ccccc3[N+](=O)[O-])c3ccc4ccccc4c3O2)cc1 (centres undefined)	95.3
COc1ccccc1/C=C1\COc2ccc(-c3ccccc3)cc2C1=O	38.9
COc1ccncc1C#Cc1cncc(C(=O)Nc2ccc(CN3CCN(C)CC3)c(C(F)(F)F)c2)c1	11.8

====

# maps each entry to its growth
tested on: SK-MEL-5 melanoma; assay: NCI-60 one-dose screen, 48 h (100 = growth as untreated, 0 = no growth, -100 = all killed); conditions: 10 µM unless noted
Compounds without any hit were thinned out: in the full panel of roughly 83,000, 20% have a hit.

compound	growth [%]
COc1ccccc1/C=C1\COc2ccc(-c3ccccc3)cc2C1=O	27.5
CC(C)(C)OC(=O)N1C/C(=C\c2ccoc2)C(=O)/C(=C/c2ccoc2)C1	99.8
CCCCCCN(C)Cc1ccc(OCCOc2ccc(CN(C)CCCCCC)cc2)cc1	-99.7
Cc1nccc2c3ccc(OCc4cn(-c5ccc(Cl)cc5)nn4)cc3n(CCCc3ccccc3)c12	68.3
CN1CCN(CCCNc2nccc(-c3c(-c4ccc(F)c(O)c4)nc4sccn34)n2)S1(=O)=O	72.6
C=C(C)[C@@H]1CC[C@]2(CO)CC[C@]3(C)[C@H](CC[C@@H]4[C@@]5(C)CCCNC(C)(C)[C@@H]5CC[C@]43C)[C@@H]12	-82.5
COc1ccc(C2=NN(C(C)=O)C(c3cn(Cc4ccc(Cl)cc4)c4ccccc34)C2)cc1 (stereo unspecified)	85.6
ClCC1(Cn2cnc3c(Cl)nc(Cl)nc32)COC1	98.4
Fc1ccccc1CSc1ncnc2nc[nH]c12	105
CC(=O)OCCCCCNc1ccccc1	106
COc1cc2nc(Cc3ccc(C)cc3)[nH]c(=O)c2cc1OC	109

====

Test system: PC-3 prostate
Assay: NCI-60 one-dose screen, 48 h (100 = growth as untreated, 0 = no growth, -100 = all killed)
Conditions: 10 µM unless noted
Experimental: Growth inhibition of the PC-3 human tumor cell line is measured as a screen for anti-cancer activity. Cells are grown in 96 well plates and exposed to the test compound for 48 hours. Compounds are tested at a single concentration, which is 10^-5 M for most compounds. The reported endpoint is percent growth (GI% or GIPRCNT), where numbers from 0 - 100% represent growth inhibition, and numbers from -100% - 0 represent cell death. For example, a value of 40 represents 60% growth inhibition. […]
Compounds without any hit were thinned out: in the full panel of roughly 83,000, 20% have a hit.
Criterion: growth strictly less than 90%. Met: True. Not met: False.

molecule	category
CC(C)C1C2=C(NCCN1C(=O)Cc1ccccc1)C(C)(C)N(Cc1ccccc1)C2=O (centres undefined)	False
N#Cc1cc(-c2nc3ccccc3s2)c(=O)n(NS(=O)(=O)c2ccc(Cl)cc2)c1N	False
Cn1c(=O)c2[nH]c(CCCc3nc4c([nH]3)c(=O)n(C)c(=O)n4C)nc2n(C)c1=O	False
C=C1C(=O)O[C@H]2[C@H]1CC/C(CNC(=O)/C=C/c1ccccc1F)=C\CC[C@@]1(C)O[C@@H]21	True
CC(=O)[C@@H]1CC[C@]2(C(N)=O)CC[C@]3(C)[C@H](CC[C@@H]4[C@@]5(C)CCC(=O)C(C)(C)[C@@H]5CC[C@]43C)[C@@H]12	True
O=C(/C=C\c1ccc(OCCCCCC[P+](c2ccccc2)(c2ccccc2)c2ccccc2)cc1)c1ccc2c(c1)OCCO2	True
CCCCCN1C=C/C(=C\C(=O)N(C)c2ccc(Br)cc2)c2ccccc21	False
CCOC(=O)C1=C(C)NC(C)=C(C(=O)OCC)C1c1cc(Br)c(O)c(OC)c1	True
